endpoint.label: melting point

Check out these entries, answers already filled in.
- CCCc1cc(N2CCC(NCC(O)c3cnc4ccccc4c3)CC2)nc2sc(C(N)=O)c(N)c12 (centres unmarked) [Example 8]: 213 to 216 °C
- NC(=O)c1sc2nc(N3CCC(NC[C@@H](O)c4ccccn4)CC3)cc(C(F)(F)F)c2c1N [Example 22]: 165 to 167 °C
- CCCc1cc(N2CCC(NCC(O)c3cc4ccccc4cn3)CC2)nc2sc(C(N)=O)c(N)c12 (centres unmarked) [Example 11]: 213 to 215 °C (dec.)

q: Check the records and state melting point for NC(=O)c1sc2nc(N3CCC(NCC(O)c4ccc5ccccc5n4)CC3)cc(C(F)(F)F)c2c1N (centres unmarked) [Example 10]
a: 198 to 201 °C

q: State, in one line, measured melting point of NC(=O)c1sc2nc(N3CCC(NCC(O)c4cccnc4)CC3)cc(C(F)(F)F)c2c1N (centres unmarked) [Example 9]
a: 179 to 181 °C
